Give measured GI50 for each item. Keep answers brief.
Tested on: LXFL 529
assayMethodText: NCI tumour cell line growth inhibition, 48 h
Active and inactive are the calls of the source. Cut-off read from the data, not from the text of the source: active = GI50 up to about 1.1 µM and inactive = higher.

Lookup result for CCCCCCCCCCCCCCCC(=O)OC1C(O)C(CO)OC(OC)C1NC(=O)N(CCCl)N=O (stereo unspecified) ; measured GI50: 12.6 µM (inactive)

Lookup result for O=C1CCC(c2ccc(Cl)cc2)=NN1c1nsc2ccccc12 ; measured GI50: 26.8 µM (inactive)

Lookup result for COC(=O)C1(c2ccc(OC)cc2)NC(c2ccccc2)C2C(=O)N(c3ccc(OC)cc3)C(=O)C21 (stereo unspecified) ; measured GI50: > 100 µM (inactive)

The following compounds each have a reported value; give each one's GI50.
1. COCN1COCN/C1=N\C#N
2. CCCCCCCCCCCCCCCCSS(C)(=O)=O

Solution:
> 100 µM (inactive)
8.75 µM (inactive)

Lookup result for Cc1ccc(C2(O)CC(c3ccc([N+](=O)[O-])o3)=NN2C(=O)COc2ccccc2Cl)cc1 (stereo unspecified) ; measured GI50: 6.59 µM (inactive)

---

Tested on: HOP-92
assayMethodText: NCI tumour cell line growth inhibition, 48 h
Activity calls are given as the source filed them. Cut-off read from the data, not from the text of the source: active = GI50 up to about 1.1 µM and inactive = higher.
A correct response names exactly one class from T (active), F (inactive)

Exercise: What classification did CCCCCCCCOc1ccc(/C=C/C2=[N+](CCO)CCO2)cc1 end up with in this test?
Solution: F

Exercise: What classification did FC(F)(F)c1ccc2c(-c3cc[nH]c3)ccnc2c1 end up with in this test?
Solution: F

Exercise: What classification did CC(C)(NO)/C(=N\O)c1ccccc1 end up with in this test?
Solution: F

Exercise: What classification did COc1ccc2nc3c(C(=O)NCCN(C)C)cccc3nc2c1 end up with in this test?
Solution: F

Exercise: What classification did COc1ccc2c(c1)NC1(CCN(CCCC(=O)c3ccc(F)cc3)CC1)N=N2 end up with in this test?
Solution: F

Exercise: What classification did CCOC(=O)C(=O)NNc1nc2c(s1)C(=O)c1ccccc1C2=O end up with in this test?
Solution: F

Exercise: What classification did C=CCSC1=N/C(=C\c2ccc(OC)cc2)C(=O)N1CC=C end up with in this test?
Solution: F

Exercise: What classification did CC(=O)Nc1ccc2[nH]c(C(=O)N3CC(CCl)c4c3cc(N)c3ccccc43)cc2c1 (stereo not given) end up with in this test?
Solution: T

Exercise: What classification did CN(C)CCn1c(=O)c2ccc(NCCCN(C)CCCNc3ccc4c(=O)n(CCN(C)C)c(=O)n5c6ccc([N+](=O)[O-])cc6c(=O)c3c45)c3c(=O)c4cc([N+](=O)[O-])ccc4n(c1=O)c23 end up with in this test?
Solution: T

Exercise: What classification did Nc1cc[nH]c(=O)n1 end up with in this test?
Solution: F

---

System: DU-145
assayMethodText: NCI tumour cell line growth inhibition, 48 h
Calls of active or inactive are those of the source. No stated cut-off is given here; in the data, active = GI50 up to about 1.1 µM and inactive = higher.
Give measured GI50 for each item. Keep answers brief.

Consider the reported GI50 for these compounds:
Lookup result for CC(=O)/C=C1\Nc2ccccc2N\C1=C/C(C)=O ; measured GI50: 30 µM (inactive)

Lookup result for O=c1[nH]cc(/N=C/c2cc(Cl)ccc2O)c(=O)[nH]1 ; measured GI50: 21.6 µM (inactive)

Lookup result for N/N=c1\[nH]c2ccccc2o1 ; measured GI50: > 100 µM (inactive)

Lookup result for CCCCCCNC(=O)c1cnc(Cl)cn1 ; measured GI50: 16.1 µM (inactive)

The following compounds each have a reported value; give each one's GI50.
1. Cn1c2c(c3ccccc31)CCN1OCC=C[C@@H](C(=O)O)[C@@H]21
2. N#CCN(CC#N)C1CC=CCC1N(CC#N)CC#N (stereo unspecified)
3. N=c1nc(N)nc(N)n1-c1ccc(S(N)(=O)=O)cc1
4. C=CCN1C[C@H](C)N([C@H](c2ccc(C(=O)N(CC)CC)cc2)c2cccc(OC)c2)C[C@H]1C
5. C/C(=N/NC(=S)N1CCCCCC1)c1ccccc1O
6. COC(=O)C1=C(C)NC(C)=C(C(=O)OC)C1c1ccc(/[N+]([O-])=C/c2ccccc2)cc1
7. Cc1n[n+](CC(=O)c2ccccc2)c2sc(N)nn12
8. CO/N=C1/c2sccc2[C@H](NC(=O)C(F)(F)F)[C@@H]1O

Solution:
1: > 100 µM (inactive); 2: > 100 µM (inactive); 3: > 100 µM (inactive); 4: > 100 µM (inactive); 5: 4.72 µM (inactive); 6: > 100 µM (inactive); 7: > 100 µM (inactive); 8: > 100 µM (inactive)

The following compounds each have a reported value; give each one's GI50.
1. Oc1ccc(/C=N/c2nccs2)c(O)c1
2. Cc1ccccc1C(=O)NC(O)(C(F)(F)F)C(F)(F)F
3. COc1ccc2c(c1)NC1(CCN(CCCC(=O)c3ccc(F)cc3)CC1)N=N2
4. CC(=O)O[C@@H]1[C@@H](O)C2=C3[C@]4(C)[C@@H]1C(C)(C)C(=O)C[C@@H]4[C@]3(O)[C@H](OC(C)=O)[C@@]1(C[C@@H]1C)C2=O
5. COCCNC1CCC2(SCCS2)c2[nH]c3ccccc3c21 (stereo unspecified)
6. O=C1C(=C(C(F)(F)Cl)C(F)(F)Cl)C2CCC1C2 (stereo unspecified)
7. COc1ccc(-n2c(N)c(C#N)c(C#N)c2-c2ccccc2)cc1

Solution:
1: > 100 µM (inactive); 2: > 100 µM (inactive); 3: 18.5 µM (inactive); 4: 17.3 µM (inactive); 5: 39.3 µM (inactive); 6: 7.53 µM (inactive); 7: > 100 µM (inactive)

Cited source for all entries: ChEMBL document CHEMBL1201862
